# ASSAY NAME: NCI Yeast Anticancer Drug Screen. Data for the sgs1 mgt1 strain (AID 161);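 further: 0% = growth of cultures given vehicle only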
# MEASUREMENT CONTEXT: S. cerevisiae sgs1 mgt1 strain, at 50.0 µM, stronger effect = higher value
About 79,000 compounds went through this panel and 15% of them were active in at least one assay; those are over-represented in the sample as a whole.

MOLECULE	UNIT OF MEASUREMENT	growth inhibition
CCCCCCCCCCCCOc1ccc(Br)cc1	%	19
C=C(C(N)=O)c1ccc([N+](=O)[O-])o1	%	62.4
C=Cc1cc2c(cc1O)CC[C@@H]1[C@@H]2CC[C@]2(C)[C@@H](O)CC[C@@H]12	%	36.8
Cc1cnoc1/N=C1\C=C(Nc2oncc2C)C(=O)c2ccccc21	%	-31.9
Cc1ccc(NC(=O)Oc2ccc(C#N)cc2)cc1Cl	%	21.1
N#CCN1CCOCCOCCN(CC#N)CCOCCOCC1	%	5.75
CS(=O)(=O)OCC1C2CCC(CC2)C1COS(C)(=O)=O (stereo unspecified)	%	10.2
NC(CC1C=CCCC1)C(=O)O (stereo unspecified)	%	1.85
CCc1c(NCCO)c(C(=O)NCCO)c2nc3ccccc3n2c1NCCO	%	-3.1
CC(=O)Nc1ccccc1C(C)=O	%	-10.2
CCOC(=O)CN1C(=O)CCC1=O	%	-1.2
N#CCCCNc1ccccc1	%	-28.4
CC1CN=C(N(Cc2ccc(F)cc2)C(=O)Nc2ccc(Cl)cc2)S1 (stereo unspecified)	%	-41.5
COC1CC(NC(=O)c2ccccc2)C(O)C(C)O1 (stereo unspecified)	%	11.6
CCOC(=O)/C(Cc1nc2ccccc2[nH]c1=O)=N\O	%	5.65
Cc1ccc(S(=O)(=O)OCOS(=O)(=O)c2ccc(C)cc2)cc1	%	4.95
c1ccc(COC2COC(OCc3ccccc3)C(OCc3ccccc3)C2OCc2ccccc2)cc1 (stereo unspecified)	%	3.4
CC(Cc1ccccc1)Nc1ncnc2c1ncn2C1OC(CO)CC1O (stereo unspecified)	%	12.6
C[CH2][Sn]([CH2]C)([O]P(=O)(C[Si](C)(C)C)c1ccccc1)[O]P(=O)(C[Si](C)(C)C)c1ccccc1 (stereo unspecified)	%	4.2
O=C(/C(=N\Nc1ccc([N+](=O)[O-])cc1[N+](=O)[O-])c1ccccc1)c1ccccc1	%	-2.5
C=CCc1ccc(OC(=O)Nc2ccc(S(=O)(=O)CC)cc2)c(OC)c1	%	-26.4
Oc1ccc2c(c1)OCC(O)(c1ccccc1O)C2 (stereo unspecified)	%	6.3
CC(C)(C)c1c(C#N)nnc2cc(-c3ccccc3)nn12	%	21.9
CCOP(=O)(c1ccccc1)C(C)C (stereo unspecified)	%	-1.7
CC[O-].CC[O-].O=C1c2ccccc2C(=O)c2c(O)ccc([O-])c21.O=C1c2ccccc2C(=O)c2c(O)ccc([O-])c21.[Ti+4]	%	-3.45
Cc1nc(Cc2ccc(O)c(O)c2)c(C)o1	%	3.95
